Test: antimalarial activity against Dd2 strain (AID 2302);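 further: 0% = DMSO untreated growth and 100% = chloroquine plus artemisinin killed control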
Settings: P. falciparum Dd2 in RBCs, LDH growth readout, 72 h; at 2 µM; stronger effect = higher value
The source made the active and inactive calls.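 How the source made its calls: active means growth inhibition above 50% at the single 2 µM test dose, taken to imply half-maximal potency below 2 µM; inactive means the rest.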
So I've got a bunch of compounds here, and I need their growth inhibition values.

Can you share its growth inhibition? I mean this compound: Cc1nc2ccc(/C=C/C(=O)NC3CCC(CCN4CCc5ccc(C#N)cc5CC4)CC3)cc2[nH]1 (stereo not drawn)
21% (inactive)

Can you share its growth inhibition? I mean this compound: Nc1nonc1-c1nc2c(-c3cccc(Cl)c3)nccc2n1CCCNC(=O)Cc1ccc(Cl)cc1
92% (active)

Can you share its growth inhibition? I mean this compound: Cc1ccc2c(Cc3cnc(N)nc3N)cc(C)c(N)c2n1
92% (active)

Can you share its growth inhibition? I mean this compound: CC(C)CNC(=O)c1cncc(-c2cccc(CNC3Cc4ccccc4C3)c2)c1
19% (inactive)

Can you share its growth inhibition? I mean this compound: Cn1ncc2ccc(Nc3nccc(-c4ccc5c(c4)c(N)nn5C)n3)cc21
96% (active)

Can you share its growth inhibition? I mean this compound: O=C(/C=C/c1cccc(C(F)(F)F)c1)NCCCCCN1CCC(c2c[nH]c3ccccc23)CC1
14% (inactive)

Can you share its growth inhibition? I mean this compound: CC(C)CC(NC(=O)c1ccc(F)cc1)C(=O)N[C@H](/C=N/N1CCNC1=O)CC(C)C (stereo partly drawn)
84% (active)

Can you share its growth inhibition? I mean this compound: CCOC(=O)c1ccc(NC(=O)N[C@@H](Cc2ccccc2)C(=O)NC2CCN(Cc3ccc(OCCCN(C)C)cc3)C2)cc1 (stereo partly drawn)
8% (inactive)

Can you share its growth inhibition? I mean this compound: O=C(/C=C/c1ccc(Cl)c(Cl)c1)NCCCCCN1CCCN(C(=O)Nc2ccc(F)c(Cl)c2)CC1
0% (inactive)

Can you share its growth inhibition? I mean this compound: COc1ccc2c(c1)CCCC2C(C)NCC(O)c1cccc(C(F)(F)F)c1 (stereo not drawn)
99% (active)

Can you share its growth inhibition? I mean this compound: O=C(/C=C/c1ccc(F)cc1)NC1CCC(CCN2CCCN(c3ccc(C(F)(F)F)cn3)CC2)CC1 (stereo not drawn)
13% (inactive)

Can you share its growth inhibition? I mean this compound: O=C(Nc1cccc(CN2CCCN(Cc3ccc(O)cc3)CC2)c1)c1cccc(F)c1
4% (inactive)

Can you share its growth inhibition? I mean this compound: CC(=O)Nc1cccc(/C=C/C(=O)N2CCC(N3CCCCC3)CC2)c1
0% (inactive)

Can you share its growth inhibition? I mean this compound: COc1ccc(NC(=O)Nc2cccc(-c3ccncc3)c2)cc1N1CCN(C)CC1
57% (active)

Can you share its growth inhibition? I mean this compound: O=C(NC1CC1)c1ccc(Cn2c(SCc3cccc([N+](=O)[O-])c3)nc3ccccc3c2=O)cc1
65% (active)

Can you share its growth inhibition? I mean this compound: COc1cc2c(cc1S(=O)(=O)c1ccc(OCc3ccc(Cl)cc3)cc1)CCN(Cc1ccc(NC(C)=O)s1)CC2
-3% (inactive)

Can you share its growth inhibition? I mean this compound: O=C1CCCN1CCCNCc1cccc(-c2cccc(-c3nc4ccc(F)cc4[nH]3)c2)c1
69% (active)

Can you share its growth inhibition? I mean this compound: CC(C)C[C@H](NC(=O)c1cc2ccccc2s1)C(=O)N[C@H]1CCN(Cc2ccc(OCCCN(C)C)c(Cl)c2)C1
89% (active)

Can you share its growth inhibition? I mean this compound: O=C(NCc1cccc(OC(F)(F)F)c1)c1cnc2c(c1)nc(-c1cnc(-c3ccccc3)[nH]1)n2CCc1cnc[nH]1
47% (inactive)

Can you share its growth inhibition? I mean this compound: NC(N)=NN=Cc1ccc2c(c1)Cc1ccccc1-2
81% (active)

Can you share its growth inhibition? I mean this compound: CN1CCCN(Cc2ccc(-c3cccc(NC(=O)c4cccc(Cl)c4)c3)cc2)CC1
32% (inactive)

Can you share its growth inhibition? I mean this compound: CCOc1cc(C(=O)Nc2cccnc2)cc(Br)c1OCCC(C)C
51% (active)

Can you share its growth inhibition? I mean this compound: CCNc1cc(C(=O)N[C@@H](Cc2ccccc2)[C@H](O)CN[C@H](C)C(C)(C)C)cc(N2CCCCS2(=O)=O)c1
41% (inactive)
